target: ScBzz1-D2; assay: SPOT peptide array binding signal intensity (averaged, normalized) (arbitrary units (background-subtracted, floor 0; scale differs between SH3 domains)); higher = stronger binding of the SH3 domain to the peptide
Recorded endpoint: SPOT peptide array binding signal intensity
One number for each entry.

Example results:
{"Binder": "TEVPIPRRPPPPQAA", "Observed measurement": 12}
{"Binder": "VRVKKRPLIRPLNSS", "Observed measurement": 11}
{"Binder": "SGVRLPAPPPPPRRG", "Observed measurement": 36}

Quick one: give me SPOT peptide array binding signal intensity for each item below, same order please.
1. QQNRPLPQLPNRNNR
2. KDKKTKPTPPPKPSH

[21, 79]
